- MEASUREMENT_NOTES: yeast display, Sf9 membrane polyspecificity reagent, FACS + sequencing; frameworks hold sequencing errors
OBSERVATION_TYPE: polyreactivity (PSR sort gate)

[[record]]
monomer_sequence = "QVQLVESGGGLVQAGGSLRLSCAASGRTFAVYAMGWYRQAPGKERELVAAISRRGGSTYYADSVKGRFTISRDNAKNTVYLQMNSLKPEDTAVYYCATDNSQSTYPYDYWGQGTQVTVSS"
observation_type = "polyreactivity (PSR sort gate)"
result = "high polyreactivity"

[[record]]
monomer_sequence = "QVQLVESGGGLVQAGGSLRLSCAASGITFKSYAMGWYRQAPGKERELVAAIARRGGSTYYADSVKGRFTISRDNAKNTVYLQMNSLKPEDTAVYYCAADSGREPKGPSRLTYWGQGTQVTVSS"
observation_type = "polyreactivity (PSR sort gate)"
result = "high polyreactivity"


###

- MEASUREMENT_NOTES: yeast display, Sf9 membrane polyspecificity reagent, FACS + sequencing; frameworks hold sequencing errors
OBSERVATION_TYPE: polyreactivity (PSR sort gate)

Field: example entries. Status: answers known.
[[record]]
monomer_sequence = "QLQLVESGGGLVQAGGSLRLSCADSASIFTCYAMGWDRQAPGKESELVARINVSAGITYYADSVMGRFTISRDNAKNPVYLQMNSLNPEDTAVYYCAATGLRRPKHNYWGQGPQVTVSS"
observation_type = "polyreactivity (PSR sort gate)"
result = "low polyreactivity"

[[record]]
monomer_sequence = "QVQLVESGGGLVQAGGSLRLSCAASGRTSQINAMGWYIQAPGKERELVAAITRGGGITYYADSVKGRFTISRDNAKNTVYLQMNSLKPEDTAVYYCATRGSSFVQYRTRYGYWGQGTQVTVSS"
observation_type = "polyreactivity (PSR sort gate)"
result = "high polyreactivity"

[[record]]
monomer_sequence = "QVQLVESGGGLVQAGGSLRVSCAASGSIFLIYGMGWYRQAPGKERELVAAITARGGSTYYADSVKGRFTISRDNAKNTVYLQMNSLKPEDTAVYYCNADGYPDVGAGTYGYWGLGTQVTVSS"
observation_type = "polyreactivity (PSR sort gate)"
result = "low polyreactivity"

[[record]]
monomer_sequence = "QVQLVESGGGLVQAGGSLRLSCAASGFIFGRYTMGWYRQAPGKERELVAAITYSGNTYYADSVKGRFTISRDNAKNTVYLQMNSLKPEDTAVYYCNAYGANFRAFRNAYKYWGQGTQVTVSS"
observation_type = "polyreactivity (PSR sort gate)"
result = "high polyreactivity"

[[record]]
monomer_sequence = "QVQLVESGGGLVQAGGSLRLSCAASGFIFSRYGMGWYRQAPGKERELVAAISRSGGSTYYADSVKGRFTISRDNAKNTVYLQMNSLKPEDTAVYYCATAYSWRNADWFAYSYDYWGQGTQVTVSS"
observation_type = "polyreactivity (PSR sort gate)"
result = "low polyreactivity"

[[record]]
monomer_sequence = "QVQLVESGGGLVQAGGSLRLTCAASGSIFAAKAMGWYRQAPGKERELVAAIRTRTGSTYYADSVKGRFTISRDNAKNTVYLEMNSLKPEDTAVYYCAADGGVPFWIHSTYYYWGQGTQVTVSS"
observation_type = "polyreactivity (PSR sort gate)"
result = "low polyreactivity"

[[record]]
monomer_sequence = "QVQLVESGGGLVQAGGSLRLSCAASGSIFQWNAMGWYRQAPGKERELVAAISTRGGRTYYADSVKGRFTISRDNAKNTVYLQMNSLKPEDTAVYYCAKQYGSYGRYYKYYYWGQGTQVTVSS"
observation_type = "polyreactivity (PSR sort gate)"
result = "high polyreactivity"

[[record]]
monomer_sequence = "LVQLQESGGCLVLAGGGLRLSCAASGNIFTYVIMGWYRQPPGKERELVAAITYGTITNYADSVKGPFTISRDNAKNTVYMQMNCLKPEDTAVYHCAVQSPRIEPRLYYWGQGTQVTVSS"
observation_type = "polyreactivity (PSR sort gate)"
result = "high polyreactivity"

[[record]]
monomer_sequence = "QVQLVESAGGLVQAGGSLRLSCYASGSIFTRNAMGWYRQAPGKERELVASISYSGGNTYYADSVKGRFTISRDNAKNTVYLQMNSLKPEDTAVYYCAALYSVYRDGYYWGQGTQVTVSS"
observation_type = "polyreactivity (PSR sort gate)"
result = "high polyreactivity"

[[record]]
monomer_sequence = "QVQLVESGGGLVQAGGSLRLSCAASGRTFYRNAMGWSRQAPGKEREFVAVISVSGGSTYYADSVKGRFTISRDNAKNTVYLQMISLKPEDTAVYYCAKRGPVRQTANDYWGPGTQVTVSS"
observation_type = "polyreactivity (PSR sort gate)"
result = "low polyreactivity"


What measured polyreactivity (PSR sort gate) goes with QVQLVESGGGLVQAGGSLRLSCAASGSILGLYAMGWYRQAPGKERELVAAITYRGGRTDYADSVKGRFTISRDNAKNTVYLQMNSLKPEDTAVYYCAAGYLPRPRYSTSYLYYYWGQGTQVTVSS ?
high polyreactivity

What measured polyreactivity (PSR sort gate) goes with QVQLVESGGGLVQGGGSLRLSCAASGFTFVYYAMGWDRQAPGKERELVAAISRSGGSTYYADSVKGRFTISRDNAKNTFYLQMNSLKPEDTAVYYCAARKNYGSRLSYEYWGQGTQVSVSS ?
high polyreactivity

What measured polyreactivity (PSR sort gate) goes with QVQLVESGVGLVQAGGSLRLICAASGFIFFGNAMGWYRQAPGKERQLVAVITWSGGSTYADSVKGRFTISRDNAKNTVYLQMNSLKPEDTAVYYCAADQQTWWQYSLINEYDYWGQGTQVTVSS ?
low polyreactivity

What measured polyreactivity (PSR sort gate) goes with QVPLVESGGGLVQAGGSLSLSCAASGNIFPSYVMGWYSQAPGKERELVAAITGNGGSTYYADSVKGRFTISRDNAKNTVYLQMNSLTAEDTEVYYCATSAPRLLRYDSSSSPSYDNWGQGTKVTVSS ?
low polyreactivity

What measured polyreactivity (PSR sort gate) goes with QVQLVESGGGLVQAGGSLRLSCAASGFTFYHYAMGWYRQAPGKERELVAAIDNGGSTYADSVKGRFTISRDNAKNTVYLQMNSLKPEDTAVYYCAAVYLRYINGFYYWGQGTQVTVSS ?
low polyreactivity
